Recorded values, source the supplement of paper PMC13380429.

- Test system: Vero E6 infected with SARS-CoV-2
- test.summary: morphology score (similarity to uninfected cells); higher = more like uninfected cells
- study.conditions: 24 h
readout: morphology score

[[record]]
molecule = "N#Cc1ccccc1OCC(O)CNCCNC(=O)Nc1ccccc1 (centres undefined) (10 µM)"
readout = "morphology score"
value_reported = -0.0291

[[record]]
molecule = "O=C(NCCCN1CCOCC1)c1ccc(Cl)cc1 [eprobemide] (10 µM)"
readout = "morphology score"
value_reported = -0.0432

[[record]]
molecule = "C[C@H](NC[C@H](O)CP(=O)(O)CC1CCCCC1)c1ccc(Cl)c(Cl)c1 (10 µM)"
readout = "morphology score"
value_reported = -0.206

[[record]]
molecule = "CNCCc1ccc(O)c(O)c1 [deoxyepinephrine] (10 µM)"
readout = "morphology score"
value_reported = 0.0423

[[record]]
molecule = "CC(C)[C@H]1[C@@H]2CC[C@@H](C2)[C@@H]1N (10 µM)"
readout = "morphology score"
value_reported = 0.109

[[record]]
molecule = "CN1CCCN=C1/C=C/c1cccs1 [pyrantel-pamoate] (10 µM)"
readout = "morphology score"
value_reported = 0.103

[[record]]
molecule = "CCN1CCN(Cc2ccc(C(=O)Nc3ccc(C)c(Oc4ccc5c(c4)CC(=O)N5)c3)cc2C(F)(F)F)CC1 (0.833333 µM)"
readout = "morphology score"
value_reported = 0.0277

[[record]]
molecule = "NCC(=O)N1C[C@H](NC(=O)c2ccccc2)C[C@H]1C(=O)O [danegaptide] (10 µM)"
readout = "morphology score"
value_reported = 0.0415

[[record]]
molecule = "Cc1cc(NS(=O)(=O)c2ccc(N)cc2)no1 [sulfamethoxazole] (10 µM)"
readout = "morphology score"
value_reported = 0.128


* * *

- System: Vero E6 infected with SARS-CoV-2
- test.summary: morphology score (similarity to uninfected cells); higher = more like uninfected cells
- study.conditions: 24 h
readout: morphology score

[[record]]
molecule = "O=c1c(-c2ccc(O)cc2)coc2c([C@@H]3O[C@H](CO)[C@@H](O)[C@H](O)[C@H]3O)c(O)ccc12 [kakonein] (10 µM)"
value_reported = -0.0186

[[record]]
molecule = "O=C(CCCCCN1C(=O)c2cccc3cccc(c23)C1=O)NO [scriptaid] (10 µM)"
value_reported = -0.255

[[record]]
molecule = "O=C(Nc1ccncc1)c1cc([N+](=O)[O-])ccc1Cl (10 µM)"
value_reported = 0.143

[[record]]
molecule = "CC(C)C[C@H](CN)CC(=O)O (10 µM)"
value_reported = -0.0821

[[record]]
molecule = "CCc1nn(CCO)c(CC)c1Oc1cc(C#N)cc(C#N)c1 [lersivirine] (10 µM)"
value_reported = 0.162

[[record]]
molecule = "C/C(=C(\\CCOP(=O)(O)O)SC(=O)c1ccccc1)N(C=O)Cc1cnc(C)nc1N [benfotiamine] (10 µM)"
value_reported = -0.0264

[[record]]
molecule = "O=c1c(O)c(-c2ccc(O)c(O)c2)oc2cc(O)ccc12 [fisetin] (10 µM)"
value_reported = 0.115

[[record]]
molecule = "NC(=O)C1=CN([C@@H]2O[C@H](COP(=O)(O)OP(=O)(O)OC[C@H]3O[C@@H](n4cnc5c(N)ncnc54)[C@H](O)[C@@H]3O)[C@@H](O)[C@H]2O)C=CC1 [coenzyme-I] (10 µM)"
value_reported = 0.00507


* * *

- System: Vero E6 infected with SARS-CoV-2
- test.summary: morphology score (similarity to uninfected cells); higher = more like uninfected cells
- study.conditions: 24 h
Listing: morphology score of selected compounds
readout: morphology score

[[record]]
compound = "CCCc1ccc(C(=O)O)cc1 [4-propylbenzoic-acid] (10 µM)"
tested_target = "Vero E6 infected with SARS-CoV-2"
readout = "morphology score"
value_reported = 0.187

[[record]]
compound = "CCCCCCOC(=O)NC(=N)c1ccc(NCc2nc3cc(C(=O)N(CCC(=O)OCC)c4ccccn4)ccc3n2C)cc1 [dabigatran-etexilate] (10 µM)"
tested_target = "Vero E6 infected with SARS-CoV-2"
readout = "morphology score"
value_reported = 0.027

[[record]]
compound = "CC(C)(C)CC(=O)Nc1c(F)cc(C(=O)/N=c2\\sccn2COP(=O)(O)O)cc1F (10 µM)"
tested_target = "Vero E6 infected with SARS-CoV-2"
readout = "morphology score"
value_reported = 0.0762

[[record]]
compound = "CC(C)Oc1cccc(-n2c(CCc3c[nH]c4ccc(Br)cc34)nc3ccccc3c2=O)c1 (10 µM)"
tested_target = "Vero E6 infected with SARS-CoV-2"
readout = "morphology score"
value_reported = 0.149

[[record]]
compound = "O=C(O)C(O)Cc1ccc(O)c(O)c1 (stereo not drawn) [sodium-danshensu] (10 µM)"
tested_target = "Vero E6 infected with SARS-CoV-2"
readout = "morphology score"
value_reported = 0.114

[[record]]
compound = "O=P1(NCCCl)OCCCN1CCCl (stereo not drawn) [ifosfamide] (10 µM)"
tested_target = "Vero E6 infected with SARS-CoV-2"
readout = "morphology score"
value_reported = 0.188

[[record]]
compound = "COc1cc2c(cc1Cc1cccc(Cl)c1F)c(=O)c(C(=O)O)cn2[C@H](CO)C(C)C [elvitegravir] (10 µM)"
tested_target = "Vero E6 infected with SARS-CoV-2"
readout = "morphology score"
value_reported = 0.0588

[[record]]
compound = "Cc1c(Cl)cccc1Nc1ccccc1C(=O)O [tolfenamic-acid] (10 µM)"
tested_target = "Vero E6 infected with SARS-CoV-2"
readout = "morphology score"
value_reported = 0.00971


* * *

- System: Vero E6 infected with SARS-CoV-2
- test.summary: inhibition of SARS-CoV-2 cytopathic effect; higher = more antiviral protection, active = above 15
- study.conditions: 100 nM; 48 h
Structures can show the parent of a compound that is named as a salt.
Listing of recorded inhibition of SARS-CoV-2 cytopathic effect by entry.
readout: inhibition of SARS-CoV-2 cytopathic effect

[[record]]
molecule = "CCOC(=O)[C@H](CCc1ccccc1)N[C@@H](C)C(=O)N1CCC[C@H]1C(=O)O"
value_reported = "-0.07% (inactive)"

[[record]]
molecule = "CCCc1cc(C)[nH]c(=O)c1CNC(=O)c1cc(-c2ccc(N3CCN(C(C)C)CC3)nc2)cc2c1cnn2C(C)C"
value_reported = "-2.55% (inactive)"

[[record]]
molecule = "COc1c(C)c2c(c(O)c1C/C=C(\\C)CCC(=O)O)C(=O)OC2"
value_reported = "0.96% (inactive)"

[[record]]
molecule = "C[C@@H](NCc1cc(Br)cc2nc(O)c(O)nc12)P(=O)(O)O"
value_reported = "-0.39% (inactive)"

[[record]]
molecule = "O=c1cccc2n1C[C@@H]1CNC[C@H]2C1"
value_reported = "-2.65% (inactive)"

[[record]]
molecule = "Cc1cc(-c2ccccc2)nnc1NCCN1CCOCC1"
value_reported = "-0.02% (inactive)"

[[record]]
molecule = "CCCC1(CCC)CCC2(CCN(CCCN(CC)CC)C2)CC1"
value_reported = "0.76% (inactive)"

[[record]]
molecule = "CNC(=O)ON(C(C)=O)C(=O)NC [caracemide]"
value_reported = "0.29% (inactive)"

[[record]]
molecule = "CN(C)CCOc1ccc(/C(=C(/CCCl)c2ccccc2)c2ccccc2)cc1 [Toremifene citrate]"
value_reported = "-0.55% (inactive)"


* * *

- System: Vero E6 infected with SARS-CoV-2
- test.summary: inhibition of SARS-CoV-2 cytopathic effect; higher = more antiviral protection, active = above 15
- study.conditions: 100 nM; 48 h
Collected inhibition of SARS-CoV-2 cytopathic effect values appear next to each entry.
readout: inhibition of SARS-CoV-2 cytopathic effect (%)

[[record]]
compound = "NC(=O)[C@@H]1CC[C@@H]2CN1C(=O)N2OS(=O)(=O)O"
uom = "%"
value_reported = -0.14

[[record]]
compound = "C=C[C@](C)(O)CC[C@@H]1[C@@]2(C)CCCC(C)(C)[C@@H]2CC[C@@]1(C)O"
uom = "%"
value_reported = -0.66

[[record]]
compound = "C[C@H]1NCc2cc(-c3ccc4c(=O)c(C(=O)O)cn(C5CC5)c4c3OC(F)F)ccc21"
uom = "%"
value_reported = 1.67

[[record]]
compound = "Cc1c(C2CCN(CCc3ccccc3)CC2)noc1-c1ccc(Cl)cc1"
uom = "%"
value_reported = 6.13

[[record]]
compound = "CC(C)(C)C#Cc1cc(N(C(=O)[C@H]2CC[C@H](C)CC2)[C@H]2CC[C@@H](O)CC2)c(C(=O)O)s1"
uom = "%"
value_reported = -0.17

[[record]]
compound = "COc1ccc(O)c(C(C)(C)C)c1.COc1ccc(O)cc1C(C)(C)C [butylated-hydroxyanisole]"
uom = "%"
value_reported = -2.79

[[record]]
compound = "O=C(O)c1cc2cccc([N+](=O)[O-])c2[nH]1"
uom = "%"
value_reported = -0.8

[[record]]
compound = "CCCCNc1nc(N)c2[nH]c(=O)n(Cc3ccc(OCCN(C)C)nc3)c2n1"
uom = "%"
value_reported = 2.36

[[record]]
compound = "N#CCCCSC(=N)N"
uom = "%"
value_reported = -3.7

